Would you mind telling me the reported GI50 of each entry?
Tested on: NCI-H226
Assay: NCI tumour cell line growth inhibition, 48 h
Active and inactive are the calls of the source. Cut-off read from the data, not from the text of the source: active = GI50 up to about 1.1 µM and inactive = higher.

CC1Cc2c(cc(N)nc2Br)NC1=O (stereo unspecified)    > 100 µM (inactive)
CCOC(=O)C(Cc1ccc(OC(=O)c2ccc(OC)cc2)cc1)NC(=O)C(F)(F)F (stereo unspecified)    > 100 µM (inactive)

Quick request: GI50 for each listed item, please.
1. CC(=O)N[C@@H](Cc1ccc(O)cn1)C(=O)NCc1ccc2c(c1)OCO2
2. N=C(NNS(=O)(=O)c1ccccc1)Oc1ccc(Br)cc1Br
3. CC(C)(CN1CCOCC1)C(=O)/C=C/c1ccc(/C=C/C(=O)C(C)(C)CN2CCOCC2)cc1
4. O/N=N\c1nc(-c2cccnc2)nc2ccccc12
5. CC1=NN(c2ccc(S(=O)(=O)O)cc2)C2(C1)SCC(=O)N2c1nc2ccccc2s1 (stereo unspecified)
6. O=C(Cc1nc2ccc([N+](=O)[O-])cc2nc1O)C(=O)Nc1cc(Cl)c(Cl)cc1Cl
7. COc1cccc2c1OC1c3ccccc3OCC1(O)C2 (stereo unspecified)
8. CNC(=O)C(C)Oc1ccc(OCC2CCCCC2)cc1 (stereo unspecified)

RESULT:
1. > 100 µM (inactive)
2. 73.5 µM (inactive)
3. 2.29 µM (inactive)
4. > 100 µM (inactive)
5. > 100 µM (inactive)
6. > 100 µM (inactive)
7. > 100 µM (inactive)
8. > 100 µM (inactive)

QUERY: Value wanted: GI50 (NCI-H226) of entry O=C1N[C@H]2C(=O)c3c(Br)sc(Br)c3[C@H]2O1
RESULT: 18.1 µM (inactive)
